assay: Total clearance in Sprague-Dawley rat at 2 mg/kg, iv; type: ADME, organism-based; conditions: in vivo

{"columns": ["molecule", "clearance / mL/min/kg"],
 "data": [
  ["O=C(Nc1ccc(Cl)cc1Cl)c1cc(Cl)ccc1O", 27],
  ["O=C(Nc1ccc([N+](=O)[O-])cc1Cl)c1cc(Cl)ccc1O [NICLOSAMIDE]", 20],
  ["O=C(Nc1ccc(C(F)(F)F)cc1Cl)c1cc(Cl)ccc1O", 39]
]}

====

tested on: U2OS; test: Inhibition of Wnt/beta-catenin in human U2OS cells assessed as internalization of frizzled-GFP at 12.5 uM after 6 hrs by confocal microscopic analysis; type: cell-based
Calls of active or inactive are those of the source. The rule behind the calls is not given here.

{"columns": ["molecule", "inhibition"],
 "data": [
  ["O=C(Nc1ccc(C(F)(F)F)cc1Cl)c1cc(Cl)ccc1O", "Active"],
  ["O=C(Nc1ccc([N+](=O)[O-])cc1)c1cc(Cl)ccc1O", "Active"],
  ["CC(=O)Oc1ccc(Cl)cc1C(=O)Nc1ccc(C(F)(F)F)cc1Cl", "Active"],
  ["O=C(Nc1ccc(Cl)cc1)c1cc(Cl)ccc1O", "Active"],
  ["O=c1oc2ccc(Cl)cc2c(=O)n1-c1ccc(C(F)(F)F)cc1Cl", "Active"],
  ["O=C(Nc1ccc(C(F)(F)F)cc1F)c1cc(Cl)ccc1O", "Active"],
  ["CC(=O)c1ccc(NC(=O)c2cc(Cl)ccc2O)cc1", "inactive"],
  ["O=C(Nc1ccc(C(F)(F)F)cc1)c1cc(Cl)ccc1O", "Active"],
  ["O=C(Nc1ccc(F)cc1Cl)c1cc(Cl)ccc1O", "Active"],
  ["O=C(Nc1ccc([N+](=O)[O-])cc1Cl)c1cc(Cl)ccc1O [NICLOSAMIDE]", "Active"],
  ["O=C(Nc1ccc(F)cc1)c1cc(Cl)ccc1O", "inactive"],
  ["O=C(Nc1ccc(Cl)cc1Cl)c1cc(Cl)ccc1O", "Active"]
]}

====

Measured bioavailability, listed per entry for reference.
assay: Oral bioavailability in Sprague-Dawley rat at 5 mg/kg; format: ADME, organism-based; details: in vivo

{"columns": ["compound", "bioavailability / %"],
 "data": [
  ["O=C(Nc1ccc(Cl)cc1Cl)c1cc(Cl)ccc1O", 12],
  ["O=C(Nc1ccc([N+](=O)[O-])cc1Cl)c1cc(Cl)ccc1O [NICLOSAMIDE]", 10],
  ["O=C(Nc1ccc(C(F)(F)F)cc1Cl)c1cc(Cl)ccc1O", 15]
]}

====

experiment: Half life in Sprague-Dawley rat at 2 mg/kg, iv; type: ADME, organism-based; settings: in vivo

{"columns": ["smiles-string", "half-life [h]"],
 "data": [
  ["O=C(Nc1ccc(C(F)(F)F)cc1Cl)c1cc(Cl)ccc1O", 3.7],
  ["O=C(Nc1ccc(Cl)cc1Cl)c1cc(Cl)ccc1O", 2.6]
]}

====

experiment: Distribution coefficient, log D of the compound at pH 7; assay type: physicochemical; details: octanol/water

{"columns": ["compound", "logD"],
 "data": [
  ["O=C(Nc1ccc([N+](=O)[O-])cc1Cl)c1cc(Cl)ccc1O [NICLOSAMIDE]", 4.48]
]}

====

test: Volume of distribution at steady state in Sprague-Dawley rat at 2 mg/kg, iv; type: ADME, organism-based; conditions: in vivo
Here the recorded Vd is given for each entry.

{"columns": ["compound", "Vd, L/kg"],
 "data": [
  ["O=C(Nc1ccc(C(F)(F)F)cc1Cl)c1cc(Cl)ccc1O", 1.1],
  ["O=C(Nc1ccc(Cl)cc1Cl)c1cc(Cl)ccc1O", 0.3],
  ["O=C(Nc1ccc([N+](=O)[O-])cc1Cl)c1cc(Cl)ccc1O [NICLOSAMIDE]", 0.9]
]}
